MEASURED TARGET: ALK6 (aa168-495) (Homo sapiens (Human))
Sequence (O00238 168-495): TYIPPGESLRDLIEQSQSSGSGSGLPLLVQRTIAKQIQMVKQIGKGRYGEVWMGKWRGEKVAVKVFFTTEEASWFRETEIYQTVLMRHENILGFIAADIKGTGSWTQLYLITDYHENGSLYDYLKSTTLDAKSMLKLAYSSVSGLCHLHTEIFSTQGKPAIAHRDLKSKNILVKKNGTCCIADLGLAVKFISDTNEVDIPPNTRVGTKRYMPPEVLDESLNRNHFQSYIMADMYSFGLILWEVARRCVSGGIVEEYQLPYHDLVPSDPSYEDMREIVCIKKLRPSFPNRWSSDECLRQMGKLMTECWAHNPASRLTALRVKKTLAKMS
REPORTED PROPERTY: IC50 (nM)

COMPOUND	MEASURED TARGET	UNIT TAG	RESULT COMPARATOR	RESULT
CC(C)CCn1cc(-c2cncc(-c3ccc4c(c3)CC(=O)N4C)c2)ccc1=O [Example 17]	ALK6 (aa168-495) (Homo sapiens (Human))	nM	>	10000
CC(C)N1C(=O)Cc2cc(-c3cncc(-c4ccc(=O)n(C(C)C)c4)c3)ccc21 [Example 21]	ALK6 (aa168-495) (Homo sapiens (Human))	nM	=	720
CC(C)n1cc(-c2cncc(-c3cnc4c(c3)CC(=O)N4)c2)ccc1=O [Example 41]	ALK6 (aa168-495) (Homo sapiens (Human))	nM	>	10000
CCC1C(=O)N(C)c2ccc(-c3cncc(-c4ccc(=O)n(C(C)C)c4)c3)cc21 (stereo not drawn) [Example 22]	ALK6 (aa168-495) (Homo sapiens (Human))	nM	=	2770
COc1cc(-c2cncc(-c3ccc4c(c3)CC(=O)N4C)c2)cn(C(C)C)c1=O [Example 2]	ALK6 (aa168-495) (Homo sapiens (Human))	nM	=	940
CC(C)n1cc(-c2cncc(-c3ccc4c(c3)CC(=O)N4CC3CCC3)c2)ccc1=O [Example 38]	ALK6 (aa168-495) (Homo sapiens (Human))	nM	=	1100

###

We begin with a simple list: items and their reported log10(IC50).
MEASURED TARGET: wild-type ALK2 (aa172-499) (Homo sapiens (Human), UniProt Q04771)
Sequence (Q04771 172-499): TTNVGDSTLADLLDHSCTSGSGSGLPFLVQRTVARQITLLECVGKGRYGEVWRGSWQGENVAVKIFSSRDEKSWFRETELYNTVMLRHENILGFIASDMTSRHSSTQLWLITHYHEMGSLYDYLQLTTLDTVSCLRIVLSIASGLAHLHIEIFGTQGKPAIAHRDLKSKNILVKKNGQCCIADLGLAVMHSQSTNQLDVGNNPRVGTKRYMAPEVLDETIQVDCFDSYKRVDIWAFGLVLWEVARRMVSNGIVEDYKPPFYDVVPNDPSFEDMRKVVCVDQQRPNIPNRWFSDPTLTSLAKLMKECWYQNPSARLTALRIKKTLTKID
MEASUREMENT NOTES: Caliper biochemical peptide phosphorylation assay, ALK2
APPLIED CONDITIONS: Caliper peptide phosphorylation, 15 uM ATP; read-out: ALK2 IC50
REPORTED PROPERTY: log10(IC50) (log10 of the value in nM)

COMPOUND	log10(IC50)
COCn1cc(-c2cncc(-c3ccc4c(c3)CC(=O)N4C)c2)ccc1=O	2.88
CC(C)n1cc(-c2cncc(-c3ccc4c(c3)CCC(=O)N4C)c2)ccc1=O	1.48
CC(C)n1cc(-c2cncc(-c3cc4c(cc3F)N(C)C(=O)C4)c2)ccc1=O	2.00
CC(C)n1cc(-c2cncc(-c3ccc4c(c3)CS(=O)(=O)N4CC3CCC3)c2)ccc1=O	2.20
CN1C(=O)Cc2cc(-c3cncc(-c4ccc(=O)n(CCC(F)(F)F)c4)c3)ccc21	2.91
CN1C(=O)Cc2cc(-c3cncc(-c4ccc(=O)n(C5CC5)c4)c3)ccc21	2.61
CC(C)n1cc(-c2cncc(-c3cnc4c(c3)CC(=O)N4)c2)ccc1=O	2.67
CN1C(=O)Cc2cc(-c3cncc(-c4ccc(=O)n(C5CCCC5)c4)c3)ccc21	2.23
CCC(C)n1cc(-c2cncc(-c3ccc4c(c3)CC(=O)N4C)c2)ccc1=O (stereo not drawn)	2.28
CCn1cc(-c2cncc(-c3ccc4c(c3)CC(=O)N4C)c2)ccc1=O	2.66
CCC(CC)CN1C(=O)Cc2cc(-c3cncc(-c4ccc(=O)n(C(C)C)c4)c3)ccc21	2.00
CC(C)n1cc(-c2cncc(-c3ccc4c(c3)CC(=O)N4CCO)c2)ccc1=O	2.08
CC(C)n1cc(-c2cncc(-c3ccc4c(c3)CC(=O)N4)c2)ccc1=O	2.26
CC(C)n1cc(-c2cncc(-c3ccc4c(c3)C(F)(F)C(=O)N4C)c2)ccc1=O	2.83
CN1C(=O)Cc2cc(-c3cncc(-c4ccc(=O)n(C)c4)c3)ccc21	2.87
